- Tested on: DLD-1 BRCA2(−/−)
- ASSAY EXPLANATION: Cell growth inhibition assay (CellTiter-Glo cell viability)
- Assay type: cell-based
- DETAILS: Homo sapiens, DLD-1, 168 h, DLD-1 BRCA2(−/−) cells, 7 days, CellTiter Glo 2.0
// EC50 lookup, one value per entry
Write down the numeric answer in nM and omit the unit.

Reference set (2 entries):
Q: Endpoint output: EC50 of Cc1nc2ccc(CN3CCN(c4ccc(C(=O)NC5CC5)nc4F)[C@H]4C[C@H]43)c(F)c2[nH]c1=O (single isomer, unassigned) [Example 9] . Value?
Result: 19

Q: Name the recorded EC50 for Cc1nc2ccc([C@@H](C)N3CCN(c4ccc(C(=O)NC5CC5)nc4)CC3)c(F)c2[nH]c1=O (single isomer, unassigned) [Example 29] .
Result: 45

***
Q: Which measured EC50 value corresponds to CNC(=O)c1ccc(N2CCN([C@@H](C)c3ccc4nc(C)c(=O)[nH]c4c3F)CC2)c(F)n1 (single isomer, unassigned) [Example 22] ?
Result: 25

###

- Tested on: MDA-MB-436 (mutated BRCA1) cell lines
- ASSAY EXPLANATION: Cell growth inhibition assay (CellTiter-Glo cell viability)
- Type: cell-based
- DETAILS: Homo sapiens, 168 h; MDA-MB-436 cells, 7 days, CellTiter Glo 2.0
- Experimental: Cell proliferation was measured through the cell viability assay using DLD-1 BRCA2(−/−) and parental isogenic pair and MDA-MB-436 (mutated BRCA1) cell lines. The CellTiter-Glo (CTG) based cell viability assay is designed to determine the number of viable cells in the culture because of compound effect, by quantifying ATP, which indicates the presence of metabolically active cells. […]
Documented pEC50 across a set of compounds
Units for pEC50: none; it is -log10 of a concentration expressed in mol/L.

// solved cases for pEC50 follow
Q: What value of pEC50 has been reported for the following compound? Cc1nc2ccc(CN3CCN(c4ccc(C(=O)NC5CC5)nc4)CC3)c(F)c2[nH]c1=O [Example 8]
Result: 7.89

Q: // query pEC50 value for entry CCc1nc2ccc(CN3CCN(c4ccc(C(=O)NC5CC5)nc4F)CC3)c(F)c2[nH]c1=O [Example 14]
Result: 8.68

Q: Entry Cc1nc2ccc(CN3CCC(c4ccc(C(=O)NC5CC5)nc4F)CC3)c(F)c2[nH]c1=O [Example 27] : reported pEC50 = ?
Result: 7.96

Q: pEC50 for Cc1nc2ccc(CN3CCN(c4ccc(C(=O)NC5CC5)nc4F)[C@H]4C[C@H]43)c(F)c2[nH]c1=O (single isomer, unassigned) [Example 9] ?
Result: 8.14

Q: Given CCc1nc2ccc(C(C)N3CCN(c4ccc(C(=O)NC)nc4)CC3)c(F)c2[nH]c1=O (single isomer, unassigned) [Example 15] , state its recorded pEC50.
Result: 7.82

***
Q: Consider the compound shown here: CNC(=O)c1ccc(C2=CCN(Cc3ccc4nc(C)c(=O)[nH]c4c3F)CC2)c(F)n1 [Example 7] What is its recorded pEC50?
Result: 8.17

Q: Field request: pEC50 | item: Cc1nc2ccc(CN3CCN(c4ccc(C(=O)NC5CC5)nc4F)CC3)c(F)c2[nH]c1=O [Example 1]
Result: 8.62

###

- System: MDA-MB-436 (mutated BRCA1) cell lines
- ASSAY EXPLANATION: Cell growth inhibition assay (CellTiter-Glo cell viability)
- Format: cell-based
- DETAILS: Homo sapiens, 168 h; MDA-MB-436 cells, 7 days, CellTiter Glo 2.0
Criterion: EC50 strictly under 0.02 µM. Met: 1.0. Not met: 0.0.

Q: Does Cc1nc2ccc([C@H](C)N3CCN(c4ccc(C(=O)NC5CC5)nc4F)CC3)c(F)c2[nH]c1=O (single isomer, unassigned) have EC50 strictly under 0.02 µM?
Result: 1.0

Q: Is the reported EC50 for "Cc1nc2ccc(CN3CCN(c4ccc(C(=O)NCC(F)F)nc4F)CC3)c(F)c2[nH]c1=O" strictly below 0.02 µM?
Result: 1.0

Q: Does the reported EC50 of Cc1nc2ccc([C@@H](C)N3CCN(c4ccc(C(=O)NC5CC5)nc4F)CC3)c(F)c2[nH]c1=O (single isomer, unassigned) stay below 0.02 µM?
Result: 1.0

Q: Confirm or reject: EC50 of "CNC(=O)c1ccc(N2CCN(Cc3ccc4nc(C)c(=O)[nH]c4c3F)C[C@H]2C)c(F)n1" lies strictly below 0.02 µM
Result: 0.0

Q: Determine if Cc1nc2ccc([C@@H](C)N3CCN(c4ccc(C(=O)NC5CC5)nc4)CC3)c(F)c2[nH]c1=O (single isomer, unassigned) shows EC50 strictly lower than 0.02 µM.
Result: 0.0

Pending molecule:
Q: is_below(EC50, 0.02 µM) for Cc1nc2ccc([C@H](C)N3CCN(c4ccc(C(=O)NC5CC5)nc4)CC3)c(F)c2[nH]c1=O (single isomer, unassigned) ?
Result: 0.0
